# system: Melanin-concentrating hormone receptor 1 (Homo sapiens, UniProt Q99705)
# Sequence (Q99705 whole entry, the tested form may be a part): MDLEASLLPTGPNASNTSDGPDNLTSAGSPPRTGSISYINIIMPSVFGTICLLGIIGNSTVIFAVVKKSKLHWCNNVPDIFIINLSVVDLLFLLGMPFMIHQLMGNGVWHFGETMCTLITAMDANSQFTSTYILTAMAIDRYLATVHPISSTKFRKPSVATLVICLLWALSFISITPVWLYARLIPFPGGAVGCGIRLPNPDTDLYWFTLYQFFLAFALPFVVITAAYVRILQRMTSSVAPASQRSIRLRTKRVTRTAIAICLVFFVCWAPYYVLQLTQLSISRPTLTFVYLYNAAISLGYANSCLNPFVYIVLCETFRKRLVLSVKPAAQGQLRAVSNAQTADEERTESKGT
# procedure summary: Antagonist activity against human MCH1 receptor stably-expressed in CHO cells by Gal4/Elk1-Luc reporter assay
observation type: pIC50
Please treat pIC50 as minus the base-10 logarithm of the molar concentration.

// solved cases for pIC50 follow
1. O=c1c2sc(-c3ccc(Cl)cc3)cc2ncn1-c1ccc2cc(CN3CCCCC3)ccc2c1	9.41
2. O=c1c2sc(-c3ccc(Cl)cc3)cc2ncn1-c1ccc2cc(CO)ccc2c1	7.50
3. O=c1c2sc(-c3ccc(Cl)cc3)cc2ncn1-c1ccc2sc(CN3CCC(c4ccccc4)CC3)cc2c1	8.24
4. CN(C)CC1CCc2cc(-n3cnc4cc(-c5ccc(Cl)cc5)sc4c3=O)ccc2C1 (stereo not given)	8.96

In: Return reported pIC50; argument: "O=c1c2sc(-c3ccc(Cl)cc3)cc2ncn1-c1ccc2oc(CN3CCCC3)cc2c1"
Out: 8.96

* * *

# system: Melanin-concentrating hormone receptor 1 (Homo sapiens, UniProt Q99705)
# procedure summary: Antagonist activity against human MCH1 receptor stably-expressed in CHO cells by Gal4/Elk1-Luc reporter assay
observation type: IC50

Answered examples (3):
1. O=C(c1ccc2cc(-n3cnc4cc(-c5ccc(Cl)cc5)sc4c3=O)ccc2c1)N1CCCC1	> 10 µM
2. COC[C@H]1CCCN1Cc1cc2cc(-n3cnc4cc(-c5ccc(Cl)cc5)sc4c3=O)ccc2n1C	0.0014 µM
3. O=C(O)c1ccc2cc(-n3cnc4cc(-c5ccc(Cl)cc5)sc4c3=O)ccc2c1	> 10 µM

Proceeding to the next molecule to report its IC50.
In: Data request, read-out IC50, for "O=c1c2sc(-c3ccc(Cl)cc3)cc2ncn1-c1ccc2ccccc2c1"
Out: > 10 µM
